System: full length human vWF binding to lyophilized platelets
Test: Full length human von Willebrand Factor platelet binding assay (FACS)
Type: cell-based
Details: 5 nM full length human vWF, lyophilized platelets, botrocetin; units in the cell: lower bound pM, upper bound nM; read-out: Inhibition of full length hVWF binding in FACS assay, IC50 range
Oligonucleotides are written 5' to 3', each unit as a sugar letter and its base; * is a phosphorothioate linkage, no mark a phosphodiester; rarer units and linkages stand in square brackets, end groups in braces. Plain capitals give the bases only. d = 2'-deoxy (DNA); r = 2'-OH (RNA); f = 2'-fluoro
Test Readout: IC50

Value lookup for IC50; key = AMX201.C8: rRfY aptamer clone (nucleic acid) rGrGrArGfCrGfCrAfCfUfCrArGfCfCrAfCfCfCfUfCrGfCrArArGfCrAfUfUfUfUrArArGrArAfUrGrAfCfUfUrGfUrGfCfCrGfCfUrGrGfCfUrGfUfUfUfUfCrGrAfCfCfUfCfUfCfUrGfCfUrArGfC
24 to 1800 pM

Try this molecule next: AMX238.G5: DNA SELEX 2 aptamer clone (nucleic acid, DNA, backbone and methylation of C not given here, DNA SELEX 2 aptamer clone) DNA: CTACCTACGATCTGACTAGCTCCAGTGTTTTATTCAATAACCGTGCGGTGCCTCCGTGAGCTTACTCTCATGTAGTTCC
273 to 2600 pM

// query: AMX205.F7: rRdY aptamer clone (nucleic acid) rGrGrArGdCrGdCrAdCdTdCrArGdCdCrAdCrAdCrGrAdCrAdTdTrGrGdCrGrGrGdTdTrGdTrArAdTdTrAdCdCrAdCrGdCrAdTrGrGdCdTrGdTdTdTrGdTdTdTdCrGrAdCdCdTdCdTdCdTrGdCdTrArGdC
321 to 1600 pM

Query AMX237.A2: DNA SELEX 2 aptamer clone (nucleic acid, DNA, backbone and methylation of C not given here, DNA SELEX 2 aptamer clone) CTACCTACGATCTGACTAGCTCCAGTGTTTCATCCAATAACCGTGCGGTGCCTCCGTGAGCTTACTCTCATGTAGTTCC next
815 to 7300 pM
